system.tested: human full-length MKNK1 (Homo sapiens, UniProt Q9BUB5, T385D)
Construct: GST (N)
Sequence (Q9BUB5 1-424 isoform Q9BUB5-2 T344D): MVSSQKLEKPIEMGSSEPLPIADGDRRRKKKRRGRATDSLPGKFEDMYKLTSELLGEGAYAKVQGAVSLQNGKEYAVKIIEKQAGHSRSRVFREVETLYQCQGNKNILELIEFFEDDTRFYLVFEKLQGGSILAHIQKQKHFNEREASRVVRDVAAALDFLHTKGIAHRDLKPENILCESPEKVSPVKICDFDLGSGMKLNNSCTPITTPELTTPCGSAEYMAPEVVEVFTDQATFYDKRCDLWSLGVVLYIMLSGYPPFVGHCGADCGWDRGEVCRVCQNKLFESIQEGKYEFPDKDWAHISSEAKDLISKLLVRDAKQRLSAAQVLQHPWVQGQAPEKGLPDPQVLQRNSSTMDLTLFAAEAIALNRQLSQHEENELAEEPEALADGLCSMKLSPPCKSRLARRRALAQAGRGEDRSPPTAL
assay.remarks: MKNK1 kinase high ATP assay (TR-FRET)
test.settings: high ATP (2 mM), after preincubation with MKNK1; compounds of the present invention (Table 1a)
Procedure: MKNK1-inhibitory activity at high ATP of compounds of the present invention after their preincubation with MKNK1 was quantified employing the TR-FRET-based MKNK1 high ATP assay as described in the following paragraphs. […]
metric: IC50 (nM)

Some solved cases for reference:
# compound, metric, unit.name, result.value
rows = [
    ("COCC1(OC)CCc2c(sc3ncnc(Nc4cc5cn[nH]c5cc4Cl)c23)C1 (racemic) [Example 31]", "IC50", "nM", 149),
    ("COCC1(OC)CCc2c(sc3ncnc(Nc4cc5cn[nH]c5cc4F)c23)C1 (single isomer, unassigned) [Example 45]", "IC50", "nM", 89),
]

I. CC[C@@]1(C(=O)N2C[C@@H](C)O[C@@H](C)C2)CCc2c(sc3ncnc(Nc4cc5cn[nH]c5cc4OC)c23)C1
II. CC[C@]1(C(=O)N(C)C)CCc2c(sc3ncnc(Nc4cc5cn[nH]c5cc4OC)c23)C1
Of I and II , which one carries the higher reported IC50? Give the label under which the chosen entry appears.
I
(I: 50.9 nM, II: 1.7 nM)

###

system.tested: human full-length MKNK1 (Homo sapiens, UniProt Q9BUB5, T385D)
Construct: GST (N)
assay.remarks: MKNK1 kinase high ATP assay (TR-FRET)
test.settings: high ATP (2 mM), after preincubation with MKNK1; compounds of the present invention (Table 1a)
metric: IC50 (nM)

a. COCC1(OC)CCc2c(sc3ncnc(Nc4ccc5[nH]ncc5c4)c23)C1 (racemic) [Example 37]
b. COCC1(OC)CCc2c(sc3ncnc(Nc4ccc5[nH]ncc5c4)c23)C1 (single isomer, unassigned) [Example 39]
c. COCCN(C)C(=O)[C@@]1(C)CCc2c(sc3ncnc(Nc4cc5cn[nH]c5cc4OC)c23)C1
d. COCC1(OC)CCc2c(sc3ncnc(Nc4cc5cn[nH]c5cc4OC)c23)C1 (single isomer, unassigned) [Example 42]
Order all 4 entries above by recorded IC50, highest first, lowest last. Labels, ranked as asked.
b, a, d, c

###

system.tested: human full-length MKNK1 (Homo sapiens, UniProt Q9BUB5, T385D)
Construct: GST (N)
assay.remarks: MKNK1 kinase high ATP assay (TR-FRET)
test.settings: high ATP (2 mM), after preincubation with MKNK1; compounds of the present invention (Table 1a)
pIC50: −log10 of the molar value.
metric: pIC50

Some solved cases for reference:
# compound, pIC50
data = [
    ("CC[C@@]1(C(=O)N2CCC2)CCc2c(sc3ncnc(Nc4cc5cn[nH]c5cc4OC)c23)C1 [Example 68]", 7.61),
    ("CC[C@@]1(C(=O)N(C)OC)CCc2c(sc3ncnc(Nc4cc5cn[nH]c5cc4OC)c23)C1 [Example 66]", 7.69),
    ("CC(C)(O)C1CCc2c(sc3ncnc(Nc4ccc5[nH]ncc5c4)c23)C1 (racemic) [Example 4]", 7.41),
    ("CC(O)C(=O)NCC1CCc2c(sc3ncnc(Nc4ccc5[nH]ncc5c4)c23)C1 (racemic) [Example 12]", 7.71),
    ("COc1cc2[nH]ncc2cc1Nc1ncnc2sc3c(c12)CCC(C)C3 (racemic) [Example 27]", 7.18),
    ("COc1cc2[nH]ncc2cc1Nc1ncnc2sc3c(c12)CC[C@](C)(C(=O)N1CCOCC1)C3 [Example 52]", 8.70),
    ("CC1CCc2c(sc3ncnc(Nc4cc5cn[nH]c5cc4F)c23)C1 (racemic) [Example 28]", 7.17),
    ("COc1cc2[nH]ncc2cc1Nc1ncnc2sc3c(c12)CC[C@@](C)(C(=O)N1CCOCC1)C3 [Example 53]", 7.72),
    ("COc1cc2[nH]ncc2cc1Nc1ncnc2sc3c(c12)CC[C@](C)(C(=O)N(C)OC)C3 [Example 58]", 8.60),
    ("c1nc(Nc2ccc3[nH]ncc3c2)c2c3c(sc2n1)CCCC3 [Example 3]", 7.73),
]

1. CC[C@]1(C(=O)N(C)CCOC)CCc2c(sc3ncnc(Nc4cc5cn[nH]c5cc4OC)c23)C1 [Example 65]
2. OCc1cnnn1C[C@@H]1CCc2c(sc3ncnc(Nc4ccc5[nH]ncc5c4)c23)C1 (single isomer, unassigned) [Example 33]
Pick one: 1 or 2 . Which one has the lower reported pIC50? Give the label under which the chosen entry appears.
2

P. CC[C@]1(C(=O)N2CCOCC2)CCc2c(sc3ncnc(Nc4cc5cn[nH]c5cc4OC)c23)C1 [Example 63]
Q. COc1cc2[nH]ncc2cc1Nc1ncnc2sc3c(c12)CCC(CN=[N+]=[N-])C3 (racemic) [Example 18]
Pick one: P or Q . Which one has the lower reported pIC50? Give the label under which the chosen entry appears.
Q
(Q: 7.62, P: 8.74)

###

system.tested: human full-length MKNK1 (Homo sapiens, UniProt Q9BUB5, T385D)
Construct: GST (N)
assay.remarks: MKNK1 kinase high ATP assay (TR-FRET)
test.settings: high ATP (2 mM), after preincubation with MKNK1; compounds of the present invention (Table 1a)
pIC50: −log10 of the molar value.
metric: pIC50

Some solved cases for reference:
# compound, pIC50
rows = [
    ("OCC1CCc2c(sc3ncnc(Nc4ccc5[nH]ncc5c4)c23)C1 (racemic)", 7.50),
    ("CC[C@]1(C(=O)N(C)C(C)C)CCc2c(sc3ncnc(Nc4cc5cn[nH]c5cc4OC)c23)C1", 8.85),
    ("COCC1(OC)CCc2c(sc3ncnc(Nc4cc5cn[nH]c5cc4C)c23)C1 (racemic) [Example 29]", 6.01),
    ("COCC1(OC)CCc2c(sc3ncnc(Nc4cc5cn[nH]c5cc4F)c23)C1 (single isomer, unassigned) [Example 44]", 7.13),
    ("CC[C@@]1(C(=O)N(C)C(C)C)CCc2c(sc3ncnc(Nc4cc5cn[nH]c5cc4OC)c23)C1", 7.42),
    ("COc1cc2[nH]ncc2cc1Nc1ncnc2sc3c(c12)CCCC3", 7.87),
]

1. COc1cc2[nH]ncc2cc1Nc1ncnc2sc3c(c12)CCC(CNC(=O)C(C)(C)O)C3 (racemic)
2. CC1CCc2c(sc3ncnc(Nc4cc5cn[nH]c5cc4Cl)c23)C1 (racemic)
Pick one: 1 or 2 . Which one has the lower reported pIC50? Give the label under which the chosen entry appears.
2
(2: 6.49, 1: 8.40)

###

system.tested: human full-length MKNK1 (Homo sapiens, UniProt Q9BUB5, T385D)
Construct: GST (N)
assay.remarks: MKNK1 kinase high ATP assay (TR-FRET)
test.settings: high ATP (2 mM), after preincubation with MKNK1; compounds of the present invention (Table 1a)
metric: IC50 (nM)

Some solved cases for reference:
# compound, IC50 [nM]
measured = [
    ("CC(C)NC(=O)NCC1CCc2c(sc3ncnc(Nc4ccc5[nH]ncc5c4)c23)C1 (racemic)", 34.4),
    ("CC[C@]1(C(=O)N2C[C@@H](C)O[C@@H](C)C2)CCc2c(sc3ncnc(Nc4cc5cn[nH]c5cc4OC)c23)C1", 1.6),
    ("COc1cc2[nH]ncc2cc1Nc1ncnc2sc3c(c12)CC[C@](C)(C(=O)N1CCOC[C@H]1C)C3", 4.3),
    ("COCC1(OC)CCc2c(sc3ncnc(Nc4cc5cn[nH]c5cc4OC)c23)C1 (single isomer, unassigned) [Example 43]", 12.5),
    ("COCC1(OC)CCc2c(sc3ncnc(Nc4cc5cn[nH]c5cc4Cl)c23)C1 (single isomer, unassigned) [Example 47]", 165),
]

a. COc1cc2[nH]ncc2cc1Nc1ncnc2sc3c(c12)CCC(CNC(=O)C(C)C)C3 (racemic)
b. COc1cc2[nH]ncc2cc1Nc1ncnc2sc3c(c12)CCC(CO)C3 (racemic)
Pick one: a or b . Which one has the lower reported IC50? Give the label under which the chosen entry appears.
a

###

system.tested: human full-length MKNK1 (Homo sapiens, UniProt Q9BUB5, T385D)
Construct: GST (N)
assay.remarks: MKNK1 kinase high ATP assay (TR-FRET)
test.settings: high ATP (2 mM), after preincubation with MKNK1; compounds of the present invention (Table 1a)
metric: IC50 (nM)

Some solved cases for reference:
# molecule, system.tested, result.value
records = [
    ("CC[C@@]1(C(=O)N(C)C)CCc2c(sc3ncnc(Nc4cc5cn[nH]c5cc4OC)c23)C1 [Example 50]", "human full-length MKNK1 (Homo sapiens, UniProt Q9BUB5, T385D)", 19.6),
    ("Cc1cc2[nH]ncc2cc1Nc1ncnc2sc3c(c12)CCC(C)C3 (racemic) [Example 25]", "human full-length MKNK1 (Homo sapiens, UniProt Q9BUB5, T385D)", 124),
    ("COc1cc2[nH]ncc2cc1Nc1ncnc2sc3c(c12)CCC(CN)C3 (racemic) [Example 19]", "human full-length MKNK1 (Homo sapiens, UniProt Q9BUB5, T385D)", 6.2),
    ("COc1cc2[nH]ncc2cc1Nc1ncnc2sc3c(c12)CC[C@@](C)(C(=O)N(C)C)C3 [Example 49]", "human full-length MKNK1 (Homo sapiens, UniProt Q9BUB5, T385D)", 13.3),
    ("COCC1(OC)CCc2c(sc3ncnc(Nc4cc5cn[nH]c5cc4C)c23)C1 (single isomer, unassigned) [Example 41]", "human full-length MKNK1 (Homo sapiens, UniProt Q9BUB5, T385D)", 371),
    ("CC[C@]1(C(=O)N2CCOC[C@H]2C)CCc2c(sc3ncnc(Nc4cc5cn[nH]c5cc4OC)c23)C1 [Example 75]", "human full-length MKNK1 (Homo sapiens, UniProt Q9BUB5, T385D)", 20.6),
]

1. OCc1cn(C[C@@H]2CCc3c(sc4ncnc(Nc5ccc6[nH]ncc6c5)c34)C2)nn1 (single isomer, unassigned) [Example 34]
2. COc1cc2[nH]ncc2cc1Nc1ncnc2sc3c(c12)CCC(CNC(=O)NC(C)C)C3 (racemic) [Example 20]
Of 1 and 2 , which one carries the higher reported IC50? Give the label under which the chosen entry appears.
1

I. COCC1(OC)CCc2c(sc3ncnc(Nc4cc5cn[nH]c5cc4OC)c23)C1 (racemic) [Example 32]
II. CN(C)C1CCc2c(sc3ncnc(Nc4ccc5[nH]ncc5c4)c23)C1 (racemic) [Example 35]
III. COc1cc2[nH]ncc2cc1Nc1ncnc2sc3c(c12)CCC(CNC(=O)[C@@H](O)Cc1ccccc1)C3 (mixture of isomers) [Example 23]
IV. CC(C)S(=O)(=O)NCC1CCc2c(sc3ncnc(Nc4ccc5[nH]ncc5c4)c23)C1 (racemic) [Example 11]
List the 4 entries from lowest IC50 to highest IC50 value. Labels, ranked as asked.
III, I, IV, II
(III: 5 nM, I: 9.1 nM, IV: 16.4 nM, II: 220 nM)

a. COc1cc2[nH]ncc2cc1Nc1ncnc2sc3c(c12)CC[C@@](C)(C(=O)N1CCC1)C3 [Example 61]
b. COCCN(C)C(=O)[C@]1(C)CCc2c(sc3ncnc(Nc4cc5cn[nH]c5cc4OC)c23)C1 [Example 57]
c. COCC1(OC)CCc2c(sc3ncnc(Nc4cc5cn[nH]c5cc4F)c23)C1 (racemic) [Example 30]
List the 3 entries from lowest IC50 to highest IC50 value. Labels, ranked as asked.
a, b, c
